Biological target: UniProt Q02083
Experiment: Fluorogenic h-NAAA assay
Assay type: biochemical
Measured quantity: IC50 (nM)

Some entries whose results are on file:
Molecule	Assay result
CC(C)(C)[C@@H]1OC(=O)[C@@H]1NC(=O)OCCCCCc1ccccc1 (relative stereo)	278
CC[C@H]1OC(=O)[C@@H]1NC(=O)OCCCCCc1ccccc1 (relative stereo)	4
C[C@@H]1OC(=O)[C@@H]1NC(=O)OCCCCCc1ccccc1	14
CC[C@@H]1OC(=O)[C@@H]1NC(=O)OCCCCCc1ccccc1 (relative stereo)	9
CC(C)(C)[C@H]1OC(=O)[C@@H]1NC(=O)OCCCCCc1ccccc1 (relative stereo)	267

[A] C[C@@H]1OC(=O)[C@@H]1NC(=O)OCCCCC1CCCCC1
[B] CC(C)[C@H]1OC(=O)[C@@H]1NC(=O)OC(C)(C)CCCCc1ccccc1 (relative stereo)
(Q) Just tell me: smaller IC50 value, A or B ? Lab note: record the label of whichever item you select.
(A) A
(A: 8 nM, B: 12 nM)

###

Biological target: Acid Ceramidase (AC) (Rattus norvegicus (Rat), UniProt Q6P7S1)
Sequence (Q6P7S1 21-394): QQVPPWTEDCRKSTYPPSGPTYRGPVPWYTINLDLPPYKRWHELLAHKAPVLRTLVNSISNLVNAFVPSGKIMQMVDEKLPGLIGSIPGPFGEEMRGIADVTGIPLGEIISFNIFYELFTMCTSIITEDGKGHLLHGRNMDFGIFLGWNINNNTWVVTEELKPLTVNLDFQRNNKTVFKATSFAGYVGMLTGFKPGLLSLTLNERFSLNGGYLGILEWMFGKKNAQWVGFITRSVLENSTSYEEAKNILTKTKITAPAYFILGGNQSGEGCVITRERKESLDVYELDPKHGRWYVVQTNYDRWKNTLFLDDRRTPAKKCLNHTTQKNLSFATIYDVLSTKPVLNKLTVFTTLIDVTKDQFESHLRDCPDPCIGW
Assay: Acid ceramidase inhibition, recombinant rat AC, LC-MS
Settings: read-out: r-AC IC50
pIC50: −log10 of the molar value.
Measured quantity: pIC50

[1] O=C(N[C@H]1COC1=O)OCCCCCc1ccccc1 [drawing 83, reference compound]
[2] C[C@@H]1OC(=O)[C@H]1NC(=O)OCCCCCc1ccccc1
(Q) Just tell me: smaller pIC50 value, 1 or 2 ? Lab note: record the label of whichever item you select.
(A) 2

###

Target: r-NAAA (Rattus norvegicus (Rat), UniProt Q5KTC7)
Sequence (Q5KTC7 34-362): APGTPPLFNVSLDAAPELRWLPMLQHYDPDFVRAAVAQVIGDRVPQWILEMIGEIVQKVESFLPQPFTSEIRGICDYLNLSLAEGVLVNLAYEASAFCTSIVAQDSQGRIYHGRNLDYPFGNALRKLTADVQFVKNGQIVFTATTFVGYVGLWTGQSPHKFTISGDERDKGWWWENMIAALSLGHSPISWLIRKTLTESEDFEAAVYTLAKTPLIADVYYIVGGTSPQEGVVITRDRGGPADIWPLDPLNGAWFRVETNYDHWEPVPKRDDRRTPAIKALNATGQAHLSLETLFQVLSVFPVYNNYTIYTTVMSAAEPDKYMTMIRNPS
Assay: r-NAAA inhibition, rat lung lysosomal NAAA preparation, UPLC/MS
Type: biochemical
Measured quantity: IC50 (µM)

Compound	System name	IC50, µM
C[C@@H]1OC(=O)[C@@H]1NC(=O)OCCCc1ccccc1	r-NAAA (Rattus norvegicus (Rat), UniProt Q5KTC7)	0.084
C[C@@H]1OC(=O)[C@@H]1NC(=O)OCCCCC1CCCCC1	r-NAAA (Rattus norvegicus (Rat), UniProt Q5KTC7)	0.02
CCCCCCC[C@H](C)OC(=O)N[C@H]1C(=O)O[C@H]1C	r-NAAA (Rattus norvegicus (Rat), UniProt Q5KTC7)	0.016
C[C@@H]1OC(=O)[C@@H]1NC(=O)OCCCOCc1ccccc1	r-NAAA (Rattus norvegicus (Rat), UniProt Q5KTC7)	0.05
C[C@@H]1OC(=O)[C@@H]1NC(=O)Oc1ccc(OCc2ccccc2)cc1	r-NAAA (Rattus norvegicus (Rat), UniProt Q5KTC7)	0.29
C[C@@H]1OC(=O)[C@@H]1NC(=O)OC1(C)CCCCC1	r-NAAA (Rattus norvegicus (Rat), UniProt Q5KTC7)	0.84

[1] C[C@@H]1OC(=O)[C@@H]1NC(=O)OC1(C)CCOCC1
[2] O=C(N[C@@H]1COC1=O)OCCCCCc1ccccc1 [reference compound]
[3] C[C@@H]1OC(=O)[C@@H]1NC(=O)OCCCCCCCc1ccccc1
(Q) Sort entries by IC50 from minimum to maximum value. The response must list the labels following the requested ordering.
(A) 3, 2, 1

###

Listed here: molecules with reported IC50 for UniProt Q5KTC7.
Measured quantity: IC50 (µM)

Some entries whose results are on file:
Molecule	System name	Units of measure	Assay result
C[C@@H]1OC(=O)[C@@H]1NC(=O)OCCCCCc1ccccc1	UniProt Q5KTC7	µM	0.05
CCCCCCCCOC(=O)N[C@H]1C(=O)O[C@H]1C	UniProt Q5KTC7	µM	0.03
CC(C)C(CCCCc1ccccc1)OC(=O)N[C@H]1C(=O)O[C@H]1C (mixture of isomers)	UniProt Q5KTC7	µM	0.1

[P] O=C(N[C@H]1COC1=O)OCCCCCc1ccccc1 [drawing 83, reference compound]
[Q] C[C@H]1OC(=O)[C@H]1NC(=O)OCCCCCc1ccccc1
[R] C[C@@H]1OC(=O)[C@@H]1NC(=O)OCCOCCc1ccccc1
[S] Cc1ccc(CCOC(=O)N[C@H]2C(=O)O[C@H]2C)cc1
[T] C[C@@H]1OC(=O)[C@@H]1NC(=O)CCCCCCc1ccccc1 [corresponding amide analog, reference compound]
(Q) Sort entries by IC50 from minimum to maximum value. The response must list the labels following the requested ordering.
(A) R, T, S, Q, P

[a] CC(CCCCc1ccccc1)OC(=O)N[C@H]1C(=O)O[C@H]1C (mixture of isomers)
[b] C[C@@H]1OC(=O)[C@@H]1NC(=O)OC12CC3CC(CC(C3)C1)C2
(Q) Just tell me: smaller IC50 value, a or b ? Lab note: record the label of whichever item you select.
(A) a

###

Target: h-NAAA (Homo sapiens (Human))
Sequence (Q02083 29-359): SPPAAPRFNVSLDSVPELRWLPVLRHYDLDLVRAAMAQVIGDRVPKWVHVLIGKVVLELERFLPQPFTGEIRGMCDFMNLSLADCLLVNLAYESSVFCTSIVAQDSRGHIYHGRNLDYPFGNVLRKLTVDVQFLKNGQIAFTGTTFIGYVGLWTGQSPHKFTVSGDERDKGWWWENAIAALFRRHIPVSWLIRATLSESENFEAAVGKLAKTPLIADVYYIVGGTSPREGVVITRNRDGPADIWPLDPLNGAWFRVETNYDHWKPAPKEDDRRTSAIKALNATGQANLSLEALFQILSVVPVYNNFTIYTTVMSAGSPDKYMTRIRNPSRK
Test: UPLC/MS h-NAAA assay
Type: biochemical
Measured quantity: IC50 (nM)

Some entries whose results are on file:
Compound	System name	Assay result
C[C@@H]1OC(=O)[C@@H]1NC(=O)OCCCCCC1CCCCC1	h-NAAA (Homo sapiens (Human))	5
C[C@@H]1OC(=O)[C@@H]1NC(=O)OCCCCC1CCCCC1	h-NAAA (Homo sapiens (Human))	9
C[C@@H]1OC(=O)[C@@H]1NC(=O)OCc1ccc(-c2ccccc2)cc1	h-NAAA (Homo sapiens (Human))	7
CC(CCCCc1ccccc1)OC(=O)N[C@H]1C(=O)O[C@H]1C (mixture of isomers)	h-NAAA (Homo sapiens (Human))	14
CCCCCCC[C@H](C)OC(=O)N[C@H]1C(=O)O[C@H]1C	h-NAAA (Homo sapiens (Human))	5

[I] C[C@@H]1OC(=O)[C@@H]1NC(=O)OCCCCCc1ccccc1
[II] C[C@@H]1OC(=O)[C@@H]1NC(=O)OCCCOCc1ccccc1
[III] C[C@@H]1OC(=O)[C@@H]1NC(=O)OC12CC3CC(CC(C3)C1)C2
(Q) Sort entries by IC50 from minimum to maximum value. The response must list the labels following the requested ordering.
(A) I, II, III

###

compounds and their reported inhibition at 10 µM
Target: Acid Ceramidase (AC) (Rattus norvegicus (Rat))
Assay: Acid ceramidase inhibition, recombinant rat AC, LC-MS
Assay type: biochemical
Settings: read-out: r-AC % inhib. @ 10 μM

(Q) Return inhibition at 10 µM measured with Acid Ceramidase (AC) (Rattus norvegicus (Rat)) given this compound: `C[C@@H]1OC(=O)[C@@H]1NC(=O)OCc1ccc(-c2ccccc2)cc1`
(A) 30%

###

Target: r-NAAA (Rattus norvegicus (Rat))
Experiment: r-NAAA inhibition, rat lung lysosomal NAAA preparation, UPLC/MS
Type: biochemical
Conditions: read-out: r-NAAA % inhib. @ 3 μM
Measured quantity: inhibition at 3 µM (%)

Some entries whose results are on file:
Compound	Assay result
CC[C@@H]1OC(=O)[C@@H]1NC(=O)OCCCCCc1ccccc1 (relative stereo)	89
CC[C@H]1OC(=O)[C@@H]1NC(=O)OCCCCCc1ccccc1 (relative stereo)	92
CC(C)(C)[C@H]1OC(=O)[C@@H]1NC(=O)OCc1ccc(-c2ccccc2)cc1 (relative stereo)	73
C[C@@H]1OC(=O)[C@@H]1NC(=O)OC1CCN(Cc2ccccc2)CC1	21
CC(C)[C@H]1OC(=O)[C@@H]1NC(=O)OC(C)(C)CCCCc1ccccc1 (relative stereo)	98
CC(C)[C@@H]1OC(=O)[C@@H]1NC(=O)OCCCCCc1ccccc1 (relative stereo)	55

[1] CC(C)(C)[C@H]1OC(=O)[C@@H]1NC(=O)OCCCCCc1ccccc1 (relative stereo)
[2] CCC1OC(=O)C1NC(=O)OC(C)(C)C (centres unmarked)
(Q) Just tell me: smaller inhibition at 3 µM value, 1 or 2 ? Lab note: record the label of whichever item you select.
(A) 2

###

Test: Chemical stability in PBS buffer pH 7.4
Format: physicochemical
Details: phosphate-buffered saline, 0.01M PBS pH 7.4, 37° C., read-out: Stability in PBS buffer, pH 7.4 t1/2
Protocol: Chemical stability of select compounds was evaluated under physiological pH conditions (0.01M Phosphate-Buffered Saline, pH 7.4) for up to 24 h. Stock solutions of each compound (10 mM) were prepared freshly in DMSO. […] For each time point, the samples were analyzed directly by LC/MS without any further sample preparation. The samples were analyzed (triplicate injection) by monitoring the MS trace by Multiple Reaction Monitoring (MRM). […]
Measured quantity: half-life at 10 μM (h)

Compound	Measured quantity	Units of measure	Assay result
C[C@@H]1OC(=O)[C@@H]1NC(=O)OCCCCCc1ccccc1	half-life at 10 μM	h	1.7

[I] O=C(N[C@H]1COC1=O)OCCCCCc1ccccc1
[II] C[C@@H]1OC(=O)[C@@H]1NC(=O)CCCCCCc1ccccc1 [corresponding amide analog, reference compound]
(Q) Of I and II , which one carries the higher reported half-life at 10 μM? Lab note: record the label of whichever item you select.
(A) II
(II: 1.05 h, I: 0.383 h)

Source: patent US9353075B2
